# Target system: Focal adhesion kinase 1 (Homo sapiens) (UniProt Q05397)
# Sequence (Q05397 whole entry, looked up): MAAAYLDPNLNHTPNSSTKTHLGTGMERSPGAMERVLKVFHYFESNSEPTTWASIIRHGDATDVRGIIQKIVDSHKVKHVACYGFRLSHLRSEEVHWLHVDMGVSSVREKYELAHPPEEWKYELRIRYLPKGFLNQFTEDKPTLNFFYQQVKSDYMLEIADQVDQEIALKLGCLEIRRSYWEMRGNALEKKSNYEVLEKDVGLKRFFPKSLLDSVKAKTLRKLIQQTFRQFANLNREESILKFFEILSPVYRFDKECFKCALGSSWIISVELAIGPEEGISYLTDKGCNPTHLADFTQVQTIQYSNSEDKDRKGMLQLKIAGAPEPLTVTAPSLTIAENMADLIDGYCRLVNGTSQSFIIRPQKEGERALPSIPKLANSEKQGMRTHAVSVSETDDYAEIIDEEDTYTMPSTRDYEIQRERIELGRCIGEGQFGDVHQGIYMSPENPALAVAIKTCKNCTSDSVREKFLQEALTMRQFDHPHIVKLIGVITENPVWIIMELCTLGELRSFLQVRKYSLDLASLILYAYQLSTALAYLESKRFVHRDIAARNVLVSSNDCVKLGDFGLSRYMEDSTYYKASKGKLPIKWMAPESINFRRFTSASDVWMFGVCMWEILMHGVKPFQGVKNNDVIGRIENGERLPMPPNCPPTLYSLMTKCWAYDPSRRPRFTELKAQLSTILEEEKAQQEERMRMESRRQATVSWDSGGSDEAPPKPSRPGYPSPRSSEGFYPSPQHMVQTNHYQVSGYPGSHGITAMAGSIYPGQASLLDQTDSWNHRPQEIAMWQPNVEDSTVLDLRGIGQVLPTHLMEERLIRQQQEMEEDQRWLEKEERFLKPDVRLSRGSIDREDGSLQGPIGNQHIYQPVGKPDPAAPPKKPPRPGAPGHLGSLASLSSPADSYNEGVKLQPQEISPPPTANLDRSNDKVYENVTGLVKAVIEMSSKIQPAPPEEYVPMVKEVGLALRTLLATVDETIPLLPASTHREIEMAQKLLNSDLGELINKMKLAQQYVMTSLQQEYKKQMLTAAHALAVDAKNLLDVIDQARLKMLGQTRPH
# Procedure details: small-molecule microarray binders of FAK, primary screen, biochemical, 635/667 nm fluorescence, BSA, DTT (AID 1130);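 further: composite of spot emission at 667 nm and signal to noise over triplicate slides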
# Protocol conditions: PTK2 binding, 635 nm fluorescence, higher = more signal
Entries annotated with measured composite z-score
Respond numerically, and do not add a unit to the figure.

Below, 5 molecules whose answers are already recorded.
[
  {
    "Molecule": "C=CCN1C(=O)[C@@]2(CCC(=O)OC(C)(C)C)N=C(c3ccc(OCCCO)cc3)O[C@H]2c2ccccc21",
    "composite z-score": 1.54
  },
  {
    "Molecule": "CCCC[C@@H]1C[C@H]1[C@@H](NC(=O)c1ccccc1)c1ccc(Cl)cc1",
    "composite z-score": 0.528
  },
  {
    "Molecule": "CC=CC(O)C1C=CC2C(=O)N(C)C(=O)C2N1Nc1ccc([N+](=O)[O-])cc1[N+](=O)[O-] (stereo not drawn)",
    "composite z-score": 0.247
  },
  {
    "Molecule": "C[C@@H](OCc1ccccc1)C1NC(=O)[C@@]23C(=O)N[C@@H](Cc4ccccc4)C2[C@H](C)[C@@]2(C)O[C@H]2C3/C=C/C/C=C\\CNC(=O)CNC1=O (stereo partly drawn)",
    "composite z-score": 0.193
  },
  {
    "Molecule": "CC(C)CCC[C@@H](C)[C@H]1CC[C@@]2(C)C3=C(CC[C@]12C)[C@@]1(C)CC[C@H](OC(=O)c2ccc(Br)cc2)C(C)(C)C1CC3 (stereo partly drawn)",
    "composite z-score": -0.172
  }
]

Record request: composite z-score value, item [N-]=[N+]=NCc1ccccc1C[C@@]1(C(=O)N2CCCCC2)N=C(c2ccc(OCCCO)cc2)O[C@@H]1c1ccccc1N=[N+]=[N-]
0.759

Which measured composite z-score value corresponds to C[C@@H]1ON(c2ccc(C(=O)OC(C)(C)C)cc2)[C@H](c2ccc(Br)cc2)[C@H]1C(=O)N1C(=O)OC[C@H]1Cc1ccccc1 ?
-0.204

For the molecule shown here, O=C(NC1CC1)[C@@H]1c2ccccc2C(=O)N(Cc2ccccc2)[C@H]1c1ccc(CO)cc1 , give the reported composite z-score.
-0.747
